system: Escherichia coli TOP10; assay: shrunken log2 fold change of peptide-encoding DNA abundance (4.5 h post-induction vs induction); higher = less antimicrobial activity (less host growth inhibition); details: time post-induction: 4.5 h; library: site-saturation at positions 5, 18, 19, 20
Rule: shrunken log2 fold change under 0.03 gives not fulfilled, otherwise fulfilled.

Given `RRIRKRPPRLPRPRPRPIWYPRP` , state whether its shrunken log2 fold change is at least 0.03.
not fulfilled

Given `RRIRGRPPRLPRPRPRPMDSPRP` , state whether its shrunken log2 fold change is at least 0.03.
fulfilled

---

system: Escherichia coli TOP10; test: shrunken log2 fold change of peptide-encoding DNA abundance (4.5 h post-induction vs induction); higher = less antimicrobial activity (less host growth inhibition); details: time post-induction: 4.5 h; library: site-saturation at positions 5, 18, 19, 20
Could you please classify the records by shrunken log2 fold change using these ranges: low (below -0.3), middle (-0.3 to below 0.03), high (0.03 or more)

Below, 5 sequences whose answers are already recorded.
RRIRYRPPRLPRPRPRPHFDPRP | high
RRIRDRPPRLPRPRPRPWVCPRP | middle
RRIRCRPPRLPRPRPRPEVTPRP | middle
RRIRLRPPRLPRPRPRPDHTPRP | middle
RRIRFRPPRLPRPRPRPTAVPRP | high

Lab note: which band did `RRIRDRPPRLPRPRPRPRNMPRP` land in?
low

Lab note: which band did `RRIRDRPPRLPRPRPRPWCQPRP` land in?
middle

Lab note: which band did `RRIRFRPPRLPRPRPRPTIPPRP` land in?
low

Lab note: which band did `RRIRGRPPRLPRPRPRPIDHPRP` land in?
high

---

system: Escherichia coli TOP10; experiment: shrunken log2 fold change of peptide-encoding DNA abundance (4.5 h post-induction vs induction); higher = less antimicrobial activity (less host growth inhibition); conditions: time post-induction: 4.5 h; library: site-saturation at positions 5, 18, 19, 20
QUANTITY KIND: shrunken log2 fold change
# output: bare number, no unit

Recorded shrunken log2 fold change, per entry:
RRIRLRPPRLPRPRPRPYQNPRP | -0.0985
RRIRTRPPRLPRPRPRPWRQPRP | 0.0481
RRIRYRPPRLPRPRPRPGSVPRP | -0.101

Entry `RRIRQRPPRLPRPRPRPSTAPRP` has what shrunken log2 fold change?
0.0789

Entry `RRIRCRPPRLPRPRPRPFKPPRP` has what shrunken log2 fold change?
-0.302

Entry `RRIRPRPPRLPRPRPRPELDPRP` has what shrunken log2 fold change?
0.0969

---

Measured shrunken log2 fold change accompanies every entry in the list below.
system: Escherichia coli TOP10; experiment: shrunken log2 fold change of peptide-encoding DNA abundance (4.5 h post-induction vs induction); higher = less antimicrobial activity (less host growth inhibition); conditions: time post-induction: 4.5 h; library: site-saturation at positions 5, 18, 19, 20;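 further: peptides expressed intracellularly from a pBAD plasmid library in pooled LB shake-flask culture, induced with 0.3% L-arabinose, DNA abundance read by NGS, three biological replicates, DESeq2 with apeglm shrinkage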
# output: bare number, no unit

Recorded shrunken log2 fold change, per entry:
RRIRVRPPRLPRPRPRPPTQPRP | 0.273
RRIRGRPPRLPRPRPRPEGIPRP | -0.0235
RRIRWRPPRLPRPRPRPLSHPRP | 0.000856
RRIRVRPPRLPRPRPRPEMHPRP | 0.209
RRIRQRPPRLPRPRPRPCFEPRP | 0.0423

Entry `RRIRKRPPRLPRPRPRPIEKPRP` has what shrunken log2 fold change?
0.694

Entry `RRIRNRPPRLPRPRPRPKTYPRP` has what shrunken log2 fold change?
-1.23
